Values compiled from patent US9365540B2.

Molecular target: human MCH receptor 1 (MCHR1) (Homo sapiens)
Construct: expressed in transfected cells; host or cells: CHO cell clone 57 (membrane fraction)
Sequence (Q99705 whole entry): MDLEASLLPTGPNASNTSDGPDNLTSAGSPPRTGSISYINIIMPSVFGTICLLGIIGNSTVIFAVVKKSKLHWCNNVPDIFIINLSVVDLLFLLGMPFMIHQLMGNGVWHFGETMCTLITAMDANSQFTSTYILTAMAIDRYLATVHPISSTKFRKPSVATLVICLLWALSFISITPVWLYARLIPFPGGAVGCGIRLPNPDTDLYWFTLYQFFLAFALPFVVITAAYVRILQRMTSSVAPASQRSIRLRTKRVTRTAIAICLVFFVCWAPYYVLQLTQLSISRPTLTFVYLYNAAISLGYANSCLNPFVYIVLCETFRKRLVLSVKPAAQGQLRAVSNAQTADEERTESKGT
Test: human MCH receptor 1 (MCHR1) competitive binding assay with [125I]-MCH(4-19)
Settings: test compound 0.1 μM, human MCHR1-expressing CHO cell membrane fraction, read-out: Binding inhibition rate % (0.1 μM)
Readout type: inhibition at 0.1 µM (%)

Cn1c(C2CC2)nc2ccc(-n3ccc(OCc4csc(C(F)(F)F)c4)cc3=O)cc21 [Example 252]	66

1: CCc1ncoc1-c1nc2ccc(-n3ccc(OCc4ccc(F)cc4)cc3=O)cc2n1C [Example 201]
2: Cc1c(C2CC2)nc2ccc(-n3ccc(NCc4ccc(Cl)s4)cc3=O)cn12 [Example 181]
Incoming: 1 or 2 : whose inhibition at 0.1 µM is greater? // respond with label for picked entry
Outgoing: 1
(1: 84%, 2: 57%)
